experimentalTarget: C3a anaphylatoxin chemotactic receptor (Homo sapiens) (UniProt Q16581)
Sequence (whole entry): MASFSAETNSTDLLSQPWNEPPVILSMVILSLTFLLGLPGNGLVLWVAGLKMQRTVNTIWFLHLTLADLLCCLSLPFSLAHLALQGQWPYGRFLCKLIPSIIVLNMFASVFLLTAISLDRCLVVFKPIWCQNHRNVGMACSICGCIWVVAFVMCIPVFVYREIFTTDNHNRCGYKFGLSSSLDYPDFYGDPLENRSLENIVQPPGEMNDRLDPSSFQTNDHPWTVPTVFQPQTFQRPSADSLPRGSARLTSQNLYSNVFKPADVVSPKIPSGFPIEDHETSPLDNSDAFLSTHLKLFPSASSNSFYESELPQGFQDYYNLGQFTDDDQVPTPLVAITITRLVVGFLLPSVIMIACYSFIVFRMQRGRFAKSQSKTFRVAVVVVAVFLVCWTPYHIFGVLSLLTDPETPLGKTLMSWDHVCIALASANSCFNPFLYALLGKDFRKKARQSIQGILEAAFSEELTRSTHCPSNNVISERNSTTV
assayRemarks: Agonist activity at C3aR in human MDM cells assessed as intracellular calcium efflux at 1 uM measured for 60 secs by fluorescence based receptor desensitization assay
Format: functional, cell-based
The source made the active and inactive calls. No cut-off for these calls is given here.
Outcomes: true (1) for active, false (0) for inactive

CC[C@H](C)[C@H](NC(=O)CCC(=O)c1ccc(-c2ccccc2)cc1)c1nc(C(=O)N[C@@H](CCCNC(=N)N)C(=O)O)co1 = false (0)
CC[C@H](C)[C@H](NC(=O)OC(C)(C)C)c1nc(C(=O)N[C@@H](CCCNC(=N)N)C(=O)O)co1 = false (0)
CC[C@H](C)[C@H](NC(=O)c1cncc(Br)c1)c1nc(C(=O)N[C@@H](CCCNC(=N)N)C(=O)O)co1 = false (0)
Cc1oc([C@H](CC(C)C)NC(=O)OC(C)(C)C)nc1C(=O)N[C@@H](CCCNC(=N)N)C(=O)O = false (0)
CC(C)C[C@H](NC(=O)c1c[nH]c2ccccc12)c1nc(C(=O)N[C@@H](CCCNC(=N)N)C(=O)O)co1 = false (0)
CC(C)C[C@H](NC(=O)Cc1ccc(F)cc1)c1nc(C(=O)N[C@@H](CCCNC(=N)N)C(=O)O)co1 = false (0)
CC[C@H](C)[C@H](NC(=O)c1ccc2ccccc2n1)c1nc(C(=O)N[C@@H](CCCNC(=N)N)C(=O)O)co1 = false (0)
CC[C@H](C)[C@H](NC(=O)c1ccccc1Oc1ccccc1)c1nc(C(=O)N[C@@H](CCCNC(=N)N)C(=O)O)co1 = true (1)
CC(C)C[C@H](NC(=O)OC(C)(C)C)c1nc(C(=O)N[C@@H](CCCNC(=N)N)C(=O)O)co1 = false (0)

====

experimentalTarget: C3a anaphylatoxin chemotactic receptor (Homo sapiens)
assayRemarks: Agonist activity at C3aR in human MDM cells assessed as inhibition of C3a-induced Ca2+ response at 10 uM measured for 60 secs by fluorescence assay relative to 100 nM C3a
Format: functional, cell-based
Label satisfied when inhibition is at or above 70%; anything below gets not satisfied.

Cc1oc([C@H](CC(C)C)NC(=O)c2ccc(/N=N/c3ccccc3)cc2)nc1C(=O)N[C@@H](CCCNC(=N)N)C(=O)O = not satisfied
Cc1oc([C@H](CC(C)C)NC(=O)c2ccc(C(F)(F)F)cc2)nc1C(=O)N[C@@H](CCCNC(=N)N)C(=O)O = not satisfied
COc1cccc(C(=O)N[C@@H](CC(C)C)c2nc(C(=O)N[C@@H](CCCNC(=N)N)C(=O)O)c(C)o2)c1 = satisfied
Cc1oc([C@H](CC(C)C)NC(=O)S(=O)(=O)c2ccccc2)nc1C(=O)N[C@@H](CCCNC(=N)N)C(=O)O = satisfied
Cc1oc([C@H](CC(C)C)NC(=O)c2ccccn2)nc1C(=O)N[C@@H](CCCNC(=N)N)C(=O)O = satisfied
Cc1oc([C@H](CC(C)C)NC(=O)CCC(C)C)nc1C(=O)N[C@@H](CCCNC(=N)N)C(=O)O = satisfied
Cc1ccc(NC(=O)N[C@@H](CC(C)C)c2nc(C(=O)N[C@@H](CCCNC(=N)N)C(=O)O)c(C)o2)cc1 = not satisfied
Cc1oc([C@H](CC(C)C)NC(=O)c2cc3ccccc3s2)nc1C(=O)N[C@@H](CCCNC(=N)N)C(=O)O = not satisfied
Cc1oc([C@H](CC(C)C)NC(=O)c2cncc(Br)c2)nc1C(=O)N[C@@H](CCCNC(=N)N)C(=O)O = satisfied
COc1cccc(CC(=O)N[C@@H](CC(C)C)c2nc(C(=O)N[C@@H](CCCNC(=N)N)C(=O)O)c(C)o2)c1 = satisfied
COc1ccc(CC(=O)N[C@@H](CC(C)C)c2nc(C(=O)N[C@@H](CCCNC(=N)N)C(=O)O)c(C)o2)cc1 = not satisfied
Cc1oc([C@H](CC(C)C)NC(=O)NCc2ccccc2)nc1C(=O)N[C@@H](CCCNC(=N)N)C(=O)O = not satisfied

====

experimentalTarget: C3a anaphylatoxin chemotactic receptor (Homo sapiens, UniProt Q16581)
Sequence (Q16581 whole entry): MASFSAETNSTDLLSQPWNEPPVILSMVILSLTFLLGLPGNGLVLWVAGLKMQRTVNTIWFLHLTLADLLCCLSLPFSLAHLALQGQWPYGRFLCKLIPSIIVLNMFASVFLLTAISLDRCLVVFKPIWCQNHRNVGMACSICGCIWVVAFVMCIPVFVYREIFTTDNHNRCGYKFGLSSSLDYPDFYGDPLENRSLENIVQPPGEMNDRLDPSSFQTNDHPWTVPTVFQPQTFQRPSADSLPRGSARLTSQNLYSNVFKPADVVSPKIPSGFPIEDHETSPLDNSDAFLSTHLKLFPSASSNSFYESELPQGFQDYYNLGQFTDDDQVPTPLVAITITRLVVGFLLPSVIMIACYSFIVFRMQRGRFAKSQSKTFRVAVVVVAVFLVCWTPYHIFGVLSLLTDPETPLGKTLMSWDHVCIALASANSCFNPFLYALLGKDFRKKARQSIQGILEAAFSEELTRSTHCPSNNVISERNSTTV
assayRemarks: Displacement of [125I]-C3a from C3aR in human MDM cells after 60 mins by microbeta scintillation counting analysis
measuredAttribute: IC50 (µM)

CC[C@H](C)[C@H](NC(=O)c1ccc(N(C)C)cc1)c1nc(C(=O)N[C@@H](CCCNC(=N)N)C(=O)O)co1 = 0.8
CC[C@H](C)[C@H](NC(=O)c1ccc2ccccc2n1)c1nc(C(=O)N[C@@H](CCCNC(=N)N)C(=O)O)co1 = 0.123
CC[C@H](C)[C@H](NC(=O)C1CCCc2ccccc21)c1nc(C(=O)N[C@@H](CCCNC(=N)N)C(=O)O)co1 (some centres undefined) = 0.104
CC[C@H](C)[C@H](NC(=O)C(c1ccccc1)c1ccccc1)c1nc(C(=O)N[C@@H](CCCNC(=N)N)C(=O)O)co1 = 0.137
CC[C@H](C)[C@H](NC(=O)c1ccccc1Oc1ccccc1)c1nc(C(=O)N[C@@H](CCCNC(=N)N)C(=O)O)co1 = 0.055
CC(C)C[C@H](NC(=O)Cc1ccc(F)cc1)c1nc(C(=O)N[C@@H](CCCNC(=N)N)C(=O)O)co1 = 0.102
CC[C@H](C)[C@H](NC(=O)c1ccc(C(=O)c2ccccc2)cc1)c1nc(C(=O)N[C@@H](CCCNC(=N)N)C(=O)O)co1 = 0.157
CC(C)C[C@H](NC(=O)C(C)c1ccc(N2Cc3ccccc3C2=O)cc1)c1nc(C(=O)N[C@@H](CCCNC(=N)N)C(=O)O)co1 (some centres undefined) = 0.45
CC[C@H](C)[C@H](NC(=O)c1ccc(OC)cc1OC)c1nc(C(=O)N[C@@H](CCCNC(=N)N)C(=O)O)co1 = 0.87
CC[C@H](C)[C@H](NC(=O)c1ccccc1)c1nc(C(=O)N[C@@H](CCCNC(=N)N)C(=O)O)co1 = 0.027
CC(C)C[C@H](NC(=O)C1c2ccccc2-c2ccccc21)c1nc(C(=O)N[C@@H](CCCNC(=N)N)C(=O)O)co1 = 0.142
CC[C@H](C)[C@H](NC(=O)c1cncc(Br)c1)c1nc(C(=O)N[C@@H](CCCNC(=N)N)C(=O)O)co1 = 0.005
CC[C@H](C)[C@H](NC(=O)c1cccc(OC)c1OC)c1nc(C(=O)N[C@@H](CCCNC(=N)N)C(=O)O)co1 = 0.71
CC(C)C[C@H](NC(=O)OC(C)(C)C)c1nc(C(=O)N[C@@H](CCCNC(=N)N)C(=O)O)co1 = 0.02
Cc1oc([C@H](CC(C)C)NC(=O)OC(C)(C)C)nc1C(=O)N[C@@H](CCCNC(=N)N)C(=O)O = 0.014
CC[C@H](C)[C@H](NC(=O)CCC(=O)c1ccc(-c2ccccc2)cc1)c1nc(C(=O)N[C@@H](CCCNC(=N)N)C(=O)O)co1 = 0.15
CC[C@H](C)[C@H](NC(=O)C1(C(C)C)C=CCC=C1)c1nc(C(=O)N[C@@H](CCCNC(=N)N)C(=O)O)co1 = 0.754
CC[C@H](C)[C@H](NC(=O)Cc1c[nH]c2ccccc12)c1nc(C(=O)N[C@@H](CCCNC(=N)N)C(=O)O)co1 = 0.152
CC(C)Cc1ccc(C(C)C(=O)N[C@@H](CC(C)C)c2nc(C(=O)N[C@@H](CCCNC(=N)N)C(=O)O)co2)cc1 (some centres undefined) = 1.03
